- Tested on: PI(3)P liposomes
- experimentalDetails: Yeast proteome chip probed with PI(3)P liposomes
- experimentalContext: liposome binding signal on yeast proteome chip, Cy3-streptavidin detection
valueKind: PI(3)P
No unit in the answer, please; the number alone is enough.

The reported PI(3)P of the molecule APA2: yeast GST-HisX6 fusion protein on proteome chip (protein, UniProt P22108 1-325, looked up, GST-His6 fusion tag, yeast GST-HisX6 fusion protein on proteome chip) Diadenosine …: MIEENLKQKIHDKFVAAKKNGHLKVTHAESKKLKDPQTTTQYWVTFAPSLALKPDANKNSDSKAEDPFANPDEELVVTEDLNGDGEYKLLLNKFPVVPEHSLLVTSEFKDQRSALTPSDLMTAYNVLCSLQGDKDDDVTCERYLVFYNCGPHSGSSQDHKHLQIMQMPEKFIPFQDVLCNGKDHFLPTFNAEPLQDDKVSFAHFVLPLPESSDQVDEDLLAMCYVSLMQRALTFFQDWTNESPELTKSYNVLLTKKWICVVPRSHAKSGPPLMLNINSTGYCGMILVKDREKLENLTEDPHLVDKSLLQCGFPNTAGQKPTEYHY was 22.50

Kindly note the recorded PI(3)P for FUR1: yeast GST-HisX6 fusion protein on proteome chip (protein, UniProt P18562 1-216, looked up, GST-His6 fusion tag, yeast GST-HisX6 fusion protein on proteome chip) Uracil …: MSSEPFKNVYLLPQTNQLLGLYTIIRNKNTTRPDFIFYSDRIIRLLVEEGLNHLPVQKQIVETDTNENFEGVSFMGKICGVSIVRAGESMEQGLRDCCRSVRIGKILIQRDEETALPKLFYEKLPEDISERYVFLLDPMLATGGSAIMATEVLIKRGVKPERIYFLNLICSKEGIEKYHAAFPEVRIVTGALDRGLDENKYLVPGLGDFGDRYYCV , which is 112.25
